# Tested on: HL-60(TB) leukemia
# Assay Procedure: NCI tumour cell line growth inhibition, 48 h
Below, each of the compounds is paired with its reported TGI value.
Readout Label: TGI

INSERT INTO results (compound, measured_target, experimental_value) VALUES
  ('Cc1ccc(NC(=O)c2ccc(OP(=O)(O)Nc3ccc(C)cc3)cc2)cc1', 'HL-60(TB) leukemia', '> 100 µM'),
  ('O=C(/C=C/c1ccc([N+](=O)[O-])cc1)c1ccc(NCc2nc3ccccc3[nH]2)cc1', 'HL-60(TB) leukemia', '4.25 µM'),
  ('CC1(C(=O)O)CCC2(C)CCC3(C)C(=CC(=O)C4C5(C)CCC(O)C(C)(C)C5CCC43C)C2C1 (stereo unspecified)', 'HL-60(TB) leukemia', '51.3 µM'),
  ('O=CNc1ccc2c(c1)C(=O)c1ccccc1-2', 'HL-60(TB) leukemia', '> 100 µM'),
  ('CC1=Nc2ccccc2OC(C)=C1N=Nc1ccc2nc(C)[nH]c2c1', 'HL-60(TB) leukemia', '> 100 µM'),
  ('Cc1ccc(Oc2ccc(C)cc2N)cc1', 'HL-60(TB) leukemia', '> 100 µM'),
  ('CC1=C2C(=C[C@@](C)(CO)[C@@H]2O)C(=O)[C@](C)(O)C12CC2', 'HL-60(TB) leukemia', '0.0327 µM'),
  ('O=S(=O)(c1ccccc1)c1cccc2c1NCCC2', 'HL-60(TB) leukemia', '67.4 µM'),
  ('COc1cc(/C(C#N)=C/c2nc3c(N4CCOCC4)nc(Cl)nc3n2C)cc(OC)c1OC', 'HL-60(TB) leukemia', '< 0.01 µM'),
  ('CC(=O)NNc1nc(C)c(C(=O)/C=C/c2ccc(NC(C)=O)cc2)s1', 'HL-60(TB) leukemia', '> 100 µM'),
  ('CC(C)(C)c1cc2c(O)c3cccc4c(=O)c5cccc6c5-c(c34)c2c(c1)c6=O', 'HL-60(TB) leukemia', '> 100 µM');

All figures here come from PubChem BioAssay (NCI).
